Just for reference, PubChem BioAssay is where these values come from.

assayInfo: HepG2 liver cancer cell viability effects, profiling panel, resazurin fluorescence, 24 h, PK04 Diversity Set (AID 1172); further: test concentration not given here
setupConditions: higher = more signal
propertyLabel: z-score
Numbers only.

Solved cases (5 shown):
O=C1O[C@@H](c2ccccc2)[C@@H](c2ccccc2)N2[C@@H](c3ccc(O)cc3)[C@]3(C(=O)Nc4ccccc43)[C@@H](C(=O)Nc3nc4ccccc4s3)[C@H]12; -1.66
C=CCN1Cc2ccccc2C[C@@]2(N=C(c3ccc(OCCCO)cc3)O[C@H]2c2ccccc2)C1=O; 0.211
C=C(C(=O)CC[C@H](OC(C)=O)c1cccc(OCCO)c1)C(C)C; -1.23
O=C1O[C@@H](c2ccccc2)[C@@H](c2ccccc2)N2[C@@H](c3ccc(O)cc3)[C@]3(C(=O)Nc4ccc(C#CCCO)cc43)[C@@H](C(=O)NC[C@H](O)c3ccccc3)[C@H]12; 1.29
NC(=O)N1C(=O)C2C(C1=O)C1C=C(CCCO)C2C(c2cccs2)N1Cc1cc2c(cc1Br)OCO2 (configuration not stated); 0.652

Would you be so kind as to report z-score for each listed record?
1. CC(C)c1ccc(NN2C(C(O)c3ccco3)C=CC3C(=O)N(c4ccccc4)C(=O)C32)cc1 (configuration not stated)
2. CN(C)C(=O)[C@]1(CCC(=O)OC(C)(C)C)N=C(c2ccc(OCCCO)cc2)O[C@@H]1c1ccccc1

[-0.517, -0.0109]

----------
measuredTarget: Homeobox protein Hox-A13 (Mus musculus)
assayInfo: inhibitors of HoxA13-DNA binding, primary screen, biochemical, fluorescence polarization, labeled oligonucleotide (AID 1185)
setupConditions: 15 min, higher = more signal, called active from +8 up or from −8 down
Please respond with reported z-score for every item in the list.
Numbers only.

// below: answered compounds
COc1ccc([Si](C)(C)[C@H]2[C@H](CCn3cc([C@H](O)c4ccccc4)nn3)O[C@@]3(C(=O)N(Cc4cccc(N5C(=O)c6cccc7cccc5c67)c4)c4ccccc43)[C@@H]2C)cc1; -2.01
COCCCNC(=O)[C@@H]1c2ccccc2C(=O)N(Cc2ccccc2C(F)(F)F)[C@H]1c1ccc(CO)cc1; -1.82
COc1ccc(NC(=O)O[C@H]2[C@H](OC(=O)Nc3ccc4c(c3)OCO4)[C@@H](OC(=O)Nc3ccc4c(c3)OCO4)[C@@H](OC)O[C@@H]2CO)cc1; -6.9
C[N+](C)(C)CCCC[C@@H]1NC(=O)[C@@H]2C[C@H](C(=O)O)[C@H](c3ccc(O)cc3)N2C1=O; -1.93

Dear reader, for each entry below, please note its z-score.
1. C=CCC(OC(C)=O)[C@@H]1[C@@H](N(Cc2cc3ccccc3o2)C(=O)c2ccc(C)cc2)c2cc(OCCCO)ccc2N1C(=O)Cc1ccc2ccccc2c1 (stereo partly drawn)
2. [N-]=[N+]=Nc1ccccc1C[C@]1(C(=O)NCc2ccccc2)N=C(c2ccc(OCCCO)cc2)O[C@H]1c1ccccc1
3. NC(=O)NCC#Cc1ccc2c(c1)[C@]1(C(=O)N2)[C@H](C(=O)Nc2nc3ccccc3s2)[C@H]2C(=O)O[C@H](c3ccccc3)[C@H](c3ccccc3)N2[C@@H]1c1ccc(O)cc1

-1.45
-0.801
0.916

Please state, for each entry, its recorded z-score.
1. Cc1ccc(S[C@]2(C(=O)NCC(F)(F)F)CC(=O)N(Cc3ccccc3)[C@@H]2c2ccc(CO)cc2)cc1
2. CCOC(=O)C1=C[C@@H](c2ccccc2)N(S(=O)(=O)c2ccc(C)cc2)[C@H]1c1cccc(Cl)c1
3. C=CCN1C(=O)[C@@]2(CCC(=O)OC(C)(C)C)N=C(c3ccc(OCCCO)cc3)O[C@H]2c2ccccc21
4. CCOC(=O)C[C@H]1[C@H](OC(=O)c2ccccc2-c2ccccc2)[C@@H](NC(=O)c2ccc3ccccc3n2)c2cc(OCCCO)ccc2N1C(=O)c1ccc2ccccc2n1
5. COCCOC(=O)N1C(=O)[C@@]2(c3cc(C#CCC(C(=O)OC)C(=O)OC)ccc31)[C@H](c1ccc(OCCO)cc1)N1[C@H](c3ccccc3)[C@H](c3ccccc3)OC(=O)[C@H]1[C@@H]2C(=O)N1CCN(c2ncccn2)CC1
6. COCCCNC(=O)[C@@]1(Sc2ccc(C)cc2)CC(=O)N(Cc2cc(C(F)(F)F)cc(C(F)(F)F)c2)[C@@H]1c1ccc(CO)cc1

1: -3.77; 2: 0.587; 3: -0.861; 4: -1.53; 5: 2.08; 6: -0.737
